# study-system: Acetylcholinesterase (Electrophorus electricus)
# assay-remarks: Inhibition of electric eel AChE at 0.5 mM using acetylthiocholine iodide as substrate preincubated for 10 mins followed by substrate addition measured after 30 mins by Ellman's method relative to control
test-readout: inhibition (%)
Quick reminder: number only, in %, skip the unit.

Reference set, count: 8
1) COc1ccccc1C(=O)NNC(=O)c1ccc2c(c1)COC2(CCCN(C)C)c1ccc(F)cc1 (centres undefined) :: 88.6
2) CN(C)CCCC1(c2ccc(F)cc2)OCc2cc(C(=O)NNC(=O)c3cccc(O)c3)ccc21 (centres undefined) :: 64.4
3) CN(C)CCCC1(c2ccc(F)cc2)OCc2cc(C(=O)NNC(=O)c3ccccc3Cl)ccc21 (centres undefined) :: 81.4
4) CN(C)CCCC1(c2ccc(F)cc2)OCc2cc(C(=O)NNC(=O)c3cccc(I)c3)ccc21 (centres undefined) :: 83.7
5) CN(C)CCCC1(c2ccc(F)cc2)OCc2cc(C(=O)NNC(=O)c3ccccc3F)ccc21 (centres undefined) :: 84.4
6) CN(C)CCCC1(c2ccc(F)cc2)OCc2cc(C(=O)NNC(=O)c3ccccc3O)ccc21 (centres undefined) :: 59
7) Cc1ccc(C(=O)NNC(=O)c2ccc3c(c2)COC3(CCCN(C)C)c2ccc(F)cc2)cc1 (centres undefined) :: 69.7
8) CN(C)CCCC1(c2ccc(F)cc2)OCc2cc(C(=O)NNC(=O)c3ccc(Br)cc3)ccc21 (centres undefined) :: 78.3

Turning now to a further record.
State the recorded inhibition for this entry: Cc1cccc(C(=O)NNC(=O)c2ccc3c(c2)COC3(CCCN(C)C)c2ccc(F)cc2)c1 (centres undefined)
82.6
